experiment notes: Stability in human liver S9 fraction assessed as parent compound remaining at 5 uM after 90 mins in presence of NADPH by LC-MS/MS analysis
Format: ADME, subcellular
measurement conditions: read-out: Stability
measure: remaining at […], 5 µM (%)

# compound smiles, measure, value reported
measured = [
    ("Nc1ccc(-c2nnn(Cc3c(F)cc(C(=O)NO)cc3F)n2)cc1", "remaining at […], 5 µM", 74),
    ("Cn1c(Sc2c(F)cc(C(=O)NO)cc2F)nnc1-c1ncccc1F", "remaining at […], 5 µM", 80),
    ("O=C(NO)c1cc(F)c(Cn2nnc(-c3ncccn3)n2)c(F)c1", "remaining at […], 5 µM", 89),
    ("O=C(NO)c1ccc(Cn2nnnc2-c2cccs2)cc1", "remaining at […], 5 µM", 100),
    ("Cn1c(Sc2c(F)cc(C(=O)NO)cc2F)nnc1-c1cccnn1", "remaining at […], 5 µM", 79),
    ("O=C(NO)c1cc(F)c(Cn2nnc(-c3ccccn3)n2)c(F)c1", "remaining at […], 5 µM", 86),
    ("Cn1c(Sc2c(F)cc(C(=O)NO)cc2F)nnc1-c1cccs1", "remaining at […], 5 µM", 83),
    ("Cn1c(Sc2c(F)cc(C(=O)NO)cc2F)nnc1-c1cccc(CN2CCCCCC2)c1", "remaining at […], 5 µM", 78),
    ("O=C(NO)c1ccc(Cn2nnc(-c3ncccn3)n2)cc1", "remaining at […], 5 µM", 83),
    ("O=C(NO)c1cc(F)c(Cc2nnc(-c3ccncc3)s2)c(F)c1", "remaining at […], 5 µM", 68),
    ("Cn1c(Sc2ccc(C(=O)NO)cc2)nnc1-c1cccs1", "remaining at […], 5 µM", 95),
    ("CCN(CC)Cc1ccc2cc(COC(=O)Nc3ccc(C(=O)NO)cc3)ccc2c1", "remaining at […], 5 µM", 83),
    ("Cc1cc(-c2nnc(Sc3c(F)cc(C(=O)NO)cc3F)n2C)nn1C", "remaining at […], 5 µM", 76),
    ("O=C(NO)c1cc(F)c(Cn2nnc(-c3ccco3)n2)c(F)c1", "remaining at […], 5 µM", 94),
    ("Cn1c(Sc2c(F)cc(C(=O)NO)cc2F)nnc1-c1ccc(CN2CCCCC2)cc1", "remaining at […], 5 µM", 69),
]

---

experiment notes: Stability in rat liver S9 fraction assessed as parent compound remaining at 5 uM after 90 mins in presence of NADPH by LC-MS/MS analysis
Format: ADME, subcellular
measurement conditions: read-out: Stability
Define the label as True when remaining at […], 5 µM is strictly less than 70% and as False in all remaining cases.

# compound, discrete label
rows = [
    ("O=C(NO)c1cc(F)c(Cn2nnc(-c3ncccn3)n2)c(F)c1", "False"),
    ("O=C(NO)c1ccc(Cn2nnnc2-c2cccs2)cc1", "False"),
    ("Cn1c(Sc2c(F)cc(C(=O)NO)cc2F)nnc1-c1ccc(CN2CCCCC2)cc1", "False"),
    ("O=C(NO)c1ccc(Cn2nnc(-c3ncccn3)n2)cc1", "False"),
    ("Cn1c(Sc2c(F)cc(C(=O)NO)cc2F)nnc1-c1cccnn1", "True"),
    ("Cn1c(Sc2ccc(C(=O)NO)cc2)nnc1-c1cccs1", "False"),
    ("Cn1c(Sc2c(F)cc(C(=O)NO)cc2F)nnc1-c1cccc(CN2CCCCCC2)c1", "True"),
    ("CCN(CC)Cc1ccc2cc(COC(=O)Nc3ccc(C(=O)NO)cc3)ccc2c1 [GIVINOSTAT]", "True"),
]
